assay-target: T1, 4H3628-AA
T1 chain: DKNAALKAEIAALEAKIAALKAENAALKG
protocol-notes: two-hybrid library CCmax;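 also: natural log of median RNA to DNA barcode read ratio; higher means stronger binding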
measurement-conditions: mean of both orientations
Reported interaction score is given for each of the following binders.
In your answer, state the number alone without any accompanying words.

binder: DKIAALKAENAALEAENAALKAEIAALEG [4H2713-AA]
interaction score: -1.22

Query DKIAALKAKNAALKAENAALEAKIAALEG [4H3029-AA] yields interaction score of -1.87

Query DENAALKAKIAALEAKNAALKAKIAALKG [4H1854-AA] yields interaction score of -1.22

Query DENAALEAEIAALKAENAALEAKIAALEG [4H1109-AA] yields interaction score of -1.06

FYI, the data here is from paper PMC10397247.
